species on record: Homo sapiens; test: Competitive binding affinity to EGFR E746 to A750 deletion mutant (unknown origin) at 10 uM in presence of ATP relative to control
Reported inhibition by item:

CHEM SMILES	inhibition
O[C@H]1CC[C@H](Nc2nccc(-c3n[nH]c4ccccc34)n2)CC1	< 50%
O[C@H]1CC[C@H](Nc2nccc(-n3ccc4ccccc43)n2)CC1	< 50%
O[C@H]1CC[C@H](Nc2nccc(-n3nnc4ccccc43)n2)CC1	< 50%

Let us examine a further case.
For O[C@H]1CC[C@H](Nc2nccc(-n3ncc4ccccc43)n2)CC1 , write its inhibition. 99%

====

Molecular target: Serine/threonine-protein kinase Nek1 (Homo sapiens, UniProt Q96PY6)
Sequence (Q96PY6 whole entry): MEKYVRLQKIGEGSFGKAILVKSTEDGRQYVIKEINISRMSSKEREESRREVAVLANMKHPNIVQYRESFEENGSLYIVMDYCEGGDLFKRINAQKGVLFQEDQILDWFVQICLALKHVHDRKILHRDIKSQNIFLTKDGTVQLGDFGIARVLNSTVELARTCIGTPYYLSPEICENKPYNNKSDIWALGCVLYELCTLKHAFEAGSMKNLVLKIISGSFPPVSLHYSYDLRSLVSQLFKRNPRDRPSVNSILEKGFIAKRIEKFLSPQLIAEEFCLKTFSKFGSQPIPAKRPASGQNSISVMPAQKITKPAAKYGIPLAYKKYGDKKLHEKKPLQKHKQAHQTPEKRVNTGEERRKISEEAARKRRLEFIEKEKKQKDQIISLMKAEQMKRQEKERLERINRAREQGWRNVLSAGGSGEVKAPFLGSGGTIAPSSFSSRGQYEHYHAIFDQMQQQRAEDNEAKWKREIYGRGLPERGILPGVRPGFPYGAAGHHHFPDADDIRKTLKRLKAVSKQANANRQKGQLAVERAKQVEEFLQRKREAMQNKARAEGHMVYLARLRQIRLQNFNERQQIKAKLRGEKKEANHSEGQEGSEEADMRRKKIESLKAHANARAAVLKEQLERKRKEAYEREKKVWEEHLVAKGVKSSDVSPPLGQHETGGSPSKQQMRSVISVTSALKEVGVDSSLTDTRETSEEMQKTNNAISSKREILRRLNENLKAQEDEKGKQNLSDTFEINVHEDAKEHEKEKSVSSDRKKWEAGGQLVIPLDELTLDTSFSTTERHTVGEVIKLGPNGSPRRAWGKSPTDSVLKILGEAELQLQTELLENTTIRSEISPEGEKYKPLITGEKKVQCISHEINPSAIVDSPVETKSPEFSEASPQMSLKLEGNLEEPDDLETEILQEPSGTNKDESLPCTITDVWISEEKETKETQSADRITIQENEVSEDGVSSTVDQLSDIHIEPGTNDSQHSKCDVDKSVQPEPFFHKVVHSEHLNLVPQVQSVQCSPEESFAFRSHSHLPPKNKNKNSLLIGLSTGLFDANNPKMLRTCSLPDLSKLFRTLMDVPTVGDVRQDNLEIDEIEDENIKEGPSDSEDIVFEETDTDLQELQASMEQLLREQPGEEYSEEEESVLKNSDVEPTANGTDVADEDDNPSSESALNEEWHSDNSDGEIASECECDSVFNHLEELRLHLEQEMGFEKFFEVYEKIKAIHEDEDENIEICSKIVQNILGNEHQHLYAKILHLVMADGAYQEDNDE
QUANTITY MEASURED: Kd (µM)
Give just the numeric value; µM need not be written.

For CS(=O)(=O)CCCOc1cccc2c1ccn2-c1ccnc(N[C@H]2CC[C@H](C(=O)N3CCC(O)CC3)CC2)n1 , write its Kd. 4
